Entry source: patent EP4242225A1

target: RBD-FH, monomeric RBD (332-534) with a FLAG peptide and an 8xHis-tag at the C-terminus (SARS-CoV-2, UniProt P0DTC2 332-534)
METRIC: Kd (pM)
Numbers only; they are read as pM.

### Prompt Answer with reported Kd of hcAb 2.11 (Fc fusion, also called 2.11Fc) heavy: QVQLVESGGGSVQAGGSLRLSCAASGDASNRKCVSWFRRAPGKEREGVALIFPVGSSTAYADSVKGRFTISQDSAKDTVYLQMNNLKPEDSGTYYCAAVSWGGRCNLETQTVTFWGQGTQVTVSS
### Response 160

### Prompt Answer with reported Kd of hcAb 1.29 (Fc fusion) heavy: QVQLVESGGGSVQAGGSLRLSCAASGYTINTDAVAWFRQAPGKGDERVAVIYTGSGNTNYADSVKGRFTISQDNAKNTVYLQMNSLKPEDTALYYCASGYYGASGYDFNNWGQGTQVTVSS
### Response 630
